Record set of Kd for target or system UniProt P62942.
Sequence (P62942 whole entry): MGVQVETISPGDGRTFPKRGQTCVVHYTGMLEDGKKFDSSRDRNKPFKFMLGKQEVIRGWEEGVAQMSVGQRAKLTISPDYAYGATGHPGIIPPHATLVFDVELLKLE

Sample records with Kd:
CCOC(=O)COC1CCC(CC(C)C2CC(=O)C(C)C=C(C)C(O)C(OC)C(=O)C(C)CC(C)C=CC=CC=C(C)C(OCC3CCC3)CC3CCC(C)C(O)(O3)C(=O)C(=O)N3CCCCC3C(=O)O2)CC1OC (stereo not drawn) = < 0.3 nM
COC1CC(CC(C)C2CC(=O)C(C)C=C(C)C(O)C(OC)C(=O)C(C)CC(C)C=CC=CC=C(C)C(OCC3CCC3)CC3CCC(C)C(O)(O3)C(=O)C(=O)N3CCCCC3C(=O)O2)CCC1O (stereo not drawn) [Compound 37] = > 1 nM
CCOC(=O)COC1CCC(CC(C)C2CC(=O)C(C)C=C(C)C(O)C(OC)C(=O)C(C)CC(C)C=CC=CC=C(C)C(OCC3CC3)CC3CCC(C)C(O)(O3)C(=O)C(=O)N3CCCCC3C(=O)O2)CC1OC (stereo not drawn) [Compound 51] = > 1 nM
COC1CC(CC(C)C2CC(=O)C(C)C=C(C)C(O)C(OC)C(=O)C(C)CC(C)C=CC=CC=C(C)C(OCC3CCCC3)CC3CCC(C)C(O)(O3)C(=O)C(=O)N3CCCCC3C(=O)O2)CCC1O (stereo not drawn) = > 1 nM

Query the reported Kd for UniProt P62942; item: COC1CC(CC(C)C2CC(=O)C(C)C=C(C)C(O)C(OC)C(=O)C(C)CC(C)C=CC=CC=C(C)C(OCC3CCC3)CC3CCC(C)C(O)(O3)C(=O)C(=O)N3CCCCC3C(=O)O2)CCC1OCCO (stereo not drawn)
> 1 nM

Lab request: please report Kd under test system UniProt P62942 for COC1CC(CC(C)C2CC(=O)C(C)C=C(C)C(O)C(OC)C(=O)C(C)CC(C)C=CC=CC=C(C)C(OCC3CC3)CC3CCC(C)C(O)(O3)C(=O)C(=O)N3CCCCC3C(=O)O2)CCC1OCCCO (stereo not drawn) [Compound 43]
> 1 nM

====

- Subject Of Test: FKBP51 (Homo sapiens (Human))
- Sequence (Q13451 whole entry): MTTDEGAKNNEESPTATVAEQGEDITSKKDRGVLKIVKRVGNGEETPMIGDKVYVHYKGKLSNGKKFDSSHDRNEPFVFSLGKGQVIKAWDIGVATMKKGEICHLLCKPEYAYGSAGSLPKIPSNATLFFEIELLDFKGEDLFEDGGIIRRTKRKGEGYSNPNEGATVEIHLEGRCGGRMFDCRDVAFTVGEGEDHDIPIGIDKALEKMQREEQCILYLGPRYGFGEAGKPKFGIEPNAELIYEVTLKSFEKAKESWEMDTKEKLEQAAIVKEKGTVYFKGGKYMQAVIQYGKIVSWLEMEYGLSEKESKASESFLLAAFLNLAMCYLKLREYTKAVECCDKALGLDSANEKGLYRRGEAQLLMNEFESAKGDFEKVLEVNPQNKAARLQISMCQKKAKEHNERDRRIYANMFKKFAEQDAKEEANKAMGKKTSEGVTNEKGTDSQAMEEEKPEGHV
Catalogue of Kd values

COCCOCCS(=O)(=O)NC1CC2CCC(C)C(O)(O2)C(=O)C(=O)N2CCCCC2C(=O)OC(C(C)CC2CCC(OCCCS(C)(=O)=O)C(OC)C2)CC(=O)C(C)C=C(C)C(O)C(OC)C(=O)C(C)CC(C)C=CC=CC=C1C (mixture of isomers) [Compound 4] = 10 to 100 nM

Recorded Kd of COC1CC(CC(C)C2CC(=O)C(C)C=C(C)C(O)C(OC)C(=O)C(C)CC(C)C=CC=CC=C(C)C(OCCC3COC3)CC3CCC(C)C(O)(O3)C(=O)C(=O)N3CCCCC3C(=O)O2)CCC1OCCO (centres unmarked) [Compound 38] , please.
10 to 100 nM

====

- Subject Of Test: FKBP51 / FRB ternary complex (Homo sapiens (Human), UniProt P42345+Q13451)
- Sequence (Q13451 whole entry): as above
- Sequence (P42345 2012-2144): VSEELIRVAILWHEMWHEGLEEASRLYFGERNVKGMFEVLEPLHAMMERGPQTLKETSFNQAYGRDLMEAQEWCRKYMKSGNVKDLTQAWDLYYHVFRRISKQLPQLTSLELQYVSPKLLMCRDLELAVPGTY
- Assay Procedure: SPR assay to characterize ternary complex formation with FKBP51 (FRB binding to rapalog-saturated FKBP51)
- Applied Conditions: FRB dilutions with 100 nM rapalog on immobilized FKBP51
pKd: −log10 of the molar value.
Catalogue of pKd readings, one per entry.

Completed entries (count: 3):
COCCS(=O)(=O)NC1CC2CCC(C)C(O)(O2)C(=O)C(=O)N2CCCCC2C(=O)OC(C(C)CC2CCC(O)C(OC)C2)CC(=O)C(C)C=C(C)C(O)C(OC)C(=O)C(C)CC(C)C=CC=CC=C1C (mixture of isomers) [Compound 24] = 6.10 to 6.52
COC1C(=O)C(C)CC/C=C/C=C/C=C(\C)C(CCO)C[C@H]2CC[C@H](C)[C@](O)(O2)C(=O)C(=O)N(C)C(C)C(=O)OC([C@H](C)C[C@@H]2CC[C@@H](OCCCS(C)(=O)=O)[C@H](OC)C2)CC(=O)C(C)/C=C(\C)C1O (stereo partly shown) [Compound 67] = < 6.10
COCCOCCS(=O)(=O)NC1CC2CCC(C)C(O)(O2)C(=O)C(=O)N2CCCCC2C(=O)OC(C(C)CC2CCC(OCCCO)C(OC)C2)CC(=O)C(C)C=C(C)C(O)C(OC)C(=O)C(C)CC(C)C=CC=CC=C1C (stereo not shown) [Compound 2] = 6.10 to 6.52

Let's switch to this compound now.
Find the recorded pKd belonging to COC1CC(CC(C)C2CC(=O)C(C)C=C(C)C(O)C(OC)C(=O)C(C)CC(C)C=CC=CC=C(C)C(OC3CC3)CC3CCC(C)C(O)(O3)C(=O)C(=O)N3CCCCC3C(=O)O2)CCC1OCCCO (stereo not shown) [Compound 53] and report it.
< 6.10
